Every entry's value here was drawn from ChEMBL document CHEMBL1130625.

test system: Escherichia coli; assay: Compound was tested for antibacterial activity against gram negative Escherichia coli CSH2/RK1; type: functional; details: Escherichia coli; read-out: MIC
quantity_name: log10 MIC (log10 of the value in µg/mL)

{"compound": "COc1c(N2C[C@@H](CO)[C@H](C(F)(F)F)C2)c(F)cc2c(=O)c(C(=O)O)cn(C3CC3)c12", "reported_result": 0.80}
{"compound": "COc1c(N2C[C@@H](C(F)(F)F)[C@@H](N)C2)c(F)cc2c(=O)c(C(=O)O)cn(C3CC3)c12.Cl", "reported_result": 0.50}
{"compound": "COc1c(N2CC[C@@](N)(C(F)(F)F)C2)c(F)cc2c(=O)c(C(=O)O)cn(C3CC3)c12.Cl", "reported_result": 0.50}
{"compound": "NC1CCN(c2nc3c(cc2F)c(=O)c(C(=O)O)cn3-c2ccc(F)cc2F)C1 (centres undefined)", "reported_result": -0.41}
{"compound": "COc1c(N2CC[C@@](CO)(C(F)(F)F)C2)c(F)cc2c(=O)c(C(=O)O)cn(C3CC3)c12", "reported_result": 1.40}
{"compound": "COc1c(N2C[C@H](CO)[C@H](C(F)(F)F)C2)c(F)cc2c(=O)c(C(=O)O)cn(C3CC3)c12", "reported_result": 0.50}
{"compound": "CC1COc2c(N3CCN(C)CC3)c(F)cc3c(=O)c(C(=O)O)cn1c23 (centres undefined)", "reported_result": -0.11}
{"compound": "COc1c(N2C[C@@H](N)[C@H](C(F)(F)F)C2)c(F)cc2c(=O)c(C(=O)O)cn(C3CC3)c12.O=C(O)C(F)(F)F", "reported_result": 0.50}

----------
tested on: Proteus vulgaris; assay: Compound was tested for antibacterial activity against gram negative Proteus vulgaris No.33; assay type: functional; conditions: Proteus vulgaris; read-out: MIC
# note: boundary value 2 µg/mL maps to not fulfilled; MIC below it maps to fulfilled

{"compound": "COc1c(N2CC[C@@](CN)(C(F)(F)F)C2)c(F)cc2c(=O)c(C(=O)O)cn(C3CC3)c12.Cl", "class_name": "not fulfilled"}
{"compound": "COc1c(N2C[C@@H](N)[C@H](C(F)(F)F)C2)c(F)cc2c(=O)c(C(=O)O)cn(C3CC3)c12.O=C(O)C(F)(F)F", "class_name": "fulfilled"}
{"compound": "COc1c(N2C[C@@H](CN)[C@H](C(F)(F)F)C2)c(F)cc2c(=O)c(C(=O)O)cn(C3CC3)c12.Cl (racemic)", "class_name": "fulfilled"}
{"compound": "COc1c(N2CC[C@@](CO)(C(F)(F)F)C2)c(F)cc2c(=O)c(C(=O)O)cn(C3CC3)c12", "class_name": "fulfilled"}
{"compound": "COc1c(N2C[C@@H](CO)[C@H](C(F)(F)F)C2)c(F)cc2c(=O)c(C(=O)O)cn(C3CC3)c12", "class_name": "fulfilled"}

----------
test system: Streptococcus pyogenes; experiment: Compound was tested for antibacterial activity against gram positive Streptococcus pyogenes cook; settings: Streptococcus pyogenes; read-out: MIC
# maps each entry to its log10 of MIC
quantity_name: log10 of MIC (log10 of the value in µg/mL)

{"compound": "COc1c(N2C[C@@H](C(F)(F)F)[C@@H](N)C2)c(F)cc2c(=O)c(C(=O)O)cn(C3CC3)c12.Cl", "quantity_name": "log10 of MIC", "reported_result": -0.41}
{"compound": "COc1c(N2C[C@@H](N)[C@H](C(F)(F)F)C2)c(F)cc2c(=O)c(C(=O)O)cn(C3CC3)c12.O=C(O)C(F)(F)F", "quantity_name": "log10 of MIC", "reported_result": -0.41}
{"compound": "COc1c(N2C[C@@H](CN)[C@H](C(F)(F)F)C2)c(F)cc2c(=O)c(C(=O)O)cn(C3CC3)c12.Cl (racemic)", "quantity_name": "log10 of MIC", "reported_result": -1.60}
{"compound": "COc1c(N2C[C@H](CN)[C@@H](C(F)(F)F)C2)c(F)cc2c(=O)c(C(=O)O)cn(C3CC3)c12.Cl", "quantity_name": "log10 of MIC", "reported_result": -1.60}
{"compound": "COc1c(N2CC[C@@](N)(C(F)(F)F)C2)c(F)cc2c(=O)c(C(=O)O)cn(C3CC3)c12.Cl", "quantity_name": "log10 of MIC", "reported_result": -1.00}
{"compound": "CC1COc2c(N3CCN(C)CC3)c(F)cc3c(=O)c(C(=O)O)cn1c23 (stereo not drawn) [OFLOXACIN]", "quantity_name": "log10 of MIC", "reported_result": -0.11}
{"compound": "NC1CCN(c2nc3c(cc2F)c(=O)c(C(=O)O)cn3-c2ccc(F)cc2F)C1 (stereo not drawn) [TOSUFLOXACIN]", "quantity_name": "log10 of MIC", "reported_result": -1.00}
{"compound": "COc1c(N2CC[C@@](CN)(C(F)(F)F)C2)c(F)cc2c(=O)c(C(=O)O)cn(C3CC3)c12.Cl", "quantity_name": "log10 of MIC", "reported_result": -0.11}
{"compound": "COc1c(N2CC[C@@](CO)(C(F)(F)F)C2)c(F)cc2c(=O)c(C(=O)O)cn(C3CC3)c12", "quantity_name": "log10 of MIC", "reported_result": -0.41}
{"compound": "COc1c(N2C[C@H](CO)[C@H](C(F)(F)F)C2)c(F)cc2c(=O)c(C(=O)O)cn(C3CC3)c12", "quantity_name": "log10 of MIC", "reported_result": -1.30}
{"compound": "COc1c(N2C[C@@H](CO)[C@H](C(F)(F)F)C2)c(F)cc2c(=O)c(C(=O)O)cn(C3CC3)c12", "quantity_name": "log10 of MIC", "reported_result": -0.70}
